Experimental Target: OsWRKY34 (Oryza sativa, UniProt Q0JBA9 1-250)
Sequence (Q0JBA9 entry or part of it): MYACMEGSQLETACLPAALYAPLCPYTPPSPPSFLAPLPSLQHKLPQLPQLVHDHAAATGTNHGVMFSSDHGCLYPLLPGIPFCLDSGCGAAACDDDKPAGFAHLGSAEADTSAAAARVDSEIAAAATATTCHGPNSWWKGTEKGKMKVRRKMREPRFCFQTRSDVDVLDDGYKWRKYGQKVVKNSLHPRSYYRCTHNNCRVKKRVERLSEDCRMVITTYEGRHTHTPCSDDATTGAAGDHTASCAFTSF
Assay Details: protein-binding microarray (RPBM); PBS, 2% BSA, 51.3 ng/ul salmon testes DNA, 50 uM zinc acetate, 200 nM TF, 25 C, 1 h; high values mean tight binding
Test Context: protein: recombinant; tags: N-terminal polyhistidine and DsRed monomer fusion (pET32a); label: CyDye5-dUTP incorporated in the synthesized complementary strand; 3' TTTTT single-stranded linker to array surface; dsDNA, one strand shown
In all, about 68,000 sequences were measured (“fluorescence intensity (a.u.)”: median about 9,100, highest 2% from about 16,000 on). Many of the other results were omitted from the sample, so the highest values are more common in it than they were.
Reported binding signal is given for each of the following sequences.

- ATGATAGGTCCTGGACTCACAAGTTATTGAGAACGGCACGCGGAGTCACCTAGTGCAG: 50900 fluorescence intensity (a.u.)
- GCAGCTCTACTGTTTTCCGCTTCCATCTTCTTCCTTTCTTCGGAGTCACCTAGTGCAG: 16700 fluorescence intensity (a.u.)
- GATCCTATCATTTTCAACGATGTTAAATCGTCACAGGCTTCGGAGTCACCTAGTGCAG: 8310 fluorescence intensity (a.u.)
- CTGGACGCGGTCCTGCACGACACATGCATCATCTCCTCAACGGAGTCACCTAGTGCAG: 8570 fluorescence intensity (a.u.)

Field binding signal (OsWRKY34 (Oryza sativa, UniProt Q0JBA9 1-250)), entry `GCAGCCCTCAATTTCTATGGCGATCGCCTCTGCTTCGTCGCGGAGTCACCTAGTGCAG` : 8440 fluorescence intensity (a.u.)

Field binding signal (OsWRKY34 (Oryza sativa, UniProt Q0JBA9 1-250)), entry `TACCGTCGTGCTCCATCAATTCCATCTCCACGTGTTATTGCGGAGTCACCTAGTGCAG` : 10900 fluorescence intensity (a.u.)

Field binding signal (OsWRKY34 (Oryza sativa, UniProt Q0JBA9 1-250)), entry `TGTTATTATGTTTCAGGAATACTTCCTCTGGTTATAAATACGGAGTCACCTAGTGCAG` : 9850 fluorescence intensity (a.u.)

Field binding signal (OsWRKY34 (Oryza sativa, UniProt Q0JBA9 1-250)), entry `TTACACATTTCTTTTTCATCACTGCTGATATGTTATCCTTCGGAGTCACCTAGTGCAG` : 9940 fluorescence intensity (a.u.)

Field binding signal (OsWRKY34 (Oryza sativa, UniProt Q0JBA9 1-250)), entry `CCCGGCGGCCCGATCACCACCTGCCCGAACACCATCCTCCCGGAGTCACCTAGTGCAG` : 8530 fluorescence intensity (a.u.)

Field binding signal (OsWRKY34 (Oryza sativa, UniProt Q0JBA9 1-250)), entry `GTCCTTTACACTGATCCTGCACATCGCTCACTGTTTTCTTCGGAGTCACCTAGTGCAG` : 16800 fluorescence intensity (a.u.)

Field binding signal (OsWRKY34 (Oryza sativa, UniProt Q0JBA9 1-250)), entry `ACAGTACGCTACTATTCATACGCTAAATTTGTCTTTTTTACGGAGTCACCTAGTGCAG` : 9830 fluorescence intensity (a.u.)

Field binding signal (OsWRKY34 (Oryza sativa, UniProt Q0JBA9 1-250)), entry `GGTTGGTGTGGACCTTGCCCATTGTGAAACTTTGGTCAAACGGAGTCACCTAGTGCAG` : 8070 fluorescence intensity (a.u.)

Field binding signal (OsWRKY34 (Oryza sativa, UniProt Q0JBA9 1-250)), entry `CTCACCTACCGCATCTGTGTTCCTTTTGCTTTCTTTCTTTCGGAGTCACCTAGTGCAG` : 18100 fluorescence intensity (a.u.)

Field binding signal (OsWRKY34 (Oryza sativa, UniProt Q0JBA9 1-250)), entry `GTTCCTTTCAGAAACTGGCATTCGAGTTTTGAGTTTCTCGCGGAGTCACCTAGTGCAG` : 8720 fluorescence intensity (a.u.)

Field binding signal (OsWRKY34 (Oryza sativa, UniProt Q0JBA9 1-250)), entry `TCCTTTTGCTTTCTTTCTTTTGTGTTTTTCAAATTTCTACCGGAGTCACCTAGTGCAG` : 9810 fluorescence intensity (a.u.)

Field binding signal (OsWRKY34 (Oryza sativa, UniProt Q0JBA9 1-250)), entry `AACAGGCATGGTTTCCTTCGTCGTTTCTACTAGCAGTTGCCGGAGTCACCTAGTGCAG` : 11900 fluorescence intensity (a.u.)

---

Reported binding signal is given for each of the following sequences.
Experimental Target: OsWRKY34 (Oryza sativa, UniProt Q0JBA9 1-250)
Assay Details: protein-binding microarray (RPBM); PBS, 2% BSA, 51.3 ng/ul salmon testes DNA, 50 uM zinc acetate, 200 nM TF, 25 C, 1 h; high values mean tight binding
Test Context: protein: recombinant; tags: N-terminal polyhistidine and DsRed monomer fusion (pET32a); label: CyDye5-dUTP incorporated in the synthesized complementary strand; 3' TTTTT single-stranded linker to array surface; dsDNA, one strand shown
Whole data set: some 68,000 sequences, median “fluorescence intensity (a.u.)” near 9,100, cut for the highest 2% near 16,000. The list comes from a sample in which the highest values are over-represented; it also holds close analogues and randomly drawn sequences.

Example cases with answers are listed next.
* GGAGCTAGTCCAACCTACCGCAGTCACACCACCCCGCTATCGGAGTCACCTAGTGCAG | 9270 fluorescence intensity (a.u.)
* TGGTGTTGTCGGTGTGTGGGTGGTGATATACTTTTTTTTTCGGAGTCACCTAGTGCAG | 11600 fluorescence intensity (a.u.)
* TTGCAGTATCCCGGTTGCCCACCTTTCATGGTCCATCACCCGGAGTCACCTAGTGCAG | 8490 fluorescence intensity (a.u.)
* GGTCAATTTAGGGCACACACCAAACCAGCCCTTACAACTTCGGAGTCACCTAGTGCAG | 8620 fluorescence intensity (a.u.)
* TGGGAGCTTTGCTTGGGGTGTGTGTGTGTTTGGGTGGTGCCGGAGTCACCTAGTGCAG | 10900 fluorescence intensity (a.u.)

Field binding signal (OsWRKY34 (Oryza sativa, UniProt Q0JBA9 1-250)), entry `GAGCTGGGGTGGTGTTTGTTTGTGGGTGTGTTTGTGTGCTCGGAGTCACCTAGTGCAG` : 15900 fluorescence intensity (a.u.)

Field binding signal (OsWRKY34 (Oryza sativa, UniProt Q0JBA9 1-250)), entry `TAGTTGTCAGGTCGCTCCGCTTCATTCTGCTGTGCATTTTCGGAGTCACCTAGTGCAG` : 10100 fluorescence intensity (a.u.)

---

Reported binding signal is given for each of the following sequences.
Experimental Target: OsWRKY34 (Oryza sativa, UniProt Q0JBA9 1-250)
Assay Details: protein-binding microarray (RPBM); PBS, 2% BSA, 51.3 ng/ul salmon testes DNA, 50 uM zinc acetate, 200 nM TF, 25 C, 1 h; high values mean tight binding
Test Context: protein: recombinant; tags: N-terminal polyhistidine and DsRed monomer fusion (pET32a); label: CyDye5-dUTP incorporated in the synthesized complementary strand; 3' TTTTT single-stranded linker to array surface; dsDNA, one strand shown
The full ranking holds about 68,000 sequences; the median of “fluorescence intensity (a.u.)” is about 9,100, and the highest 2% start at about 16,000. The full list was thinned out, with the highest values kept by preference.

• CCTCGAGCTGTGCACGGCTGGTTCGTCTCGCGCCGCTTATCGGAGTCACCTAGTGCAG = 10900 fluorescence intensity (a.u.)
• CCGGAGAGGCGGTGGTGTTTGGATCGGGAGGGGAGAGATGCGGAGTCACCTAGTGCAG = 11500 fluorescence intensity (a.u.)
• CGGCGGGTGGGGCGGTGGCGGTGAGGGATGCGGTGGTGGCCGGAGTCACCTAGTGCAG = 10700 fluorescence intensity (a.u.)
• GTGGGGCCCACCTGTCGGGGCGGTTGATGGGCTCTTCTAGCGGAGTCACCTAGTGCAG = 8370 fluorescence intensity (a.u.)
• AATGAAAAATGGGGATGGGATTGGGATTGAGAAATGAATGCGGAGTCACCTAGTGCAG = 9280 fluorescence intensity (a.u.)
• CTCGTCACTCGTCTCGTCTCGCACAGTCGCAGCTGCTGCGCGGAGTCACCTAGTGCAG = 8390 fluorescence intensity (a.u.)

Just so you know, measured binding signal for `CCCGCAGATTGGATTGGATTGGGTTGGATTGGATTGGATGCGGAGTCACCTAGTGCAG` came out at 10300 fluorescence intensity (a.u.)

Just so you know, measured binding signal for `CTTCTTCTTGTCCTGCGCAACCGATGGGCGGGTTCTTGATCGGAGTCACCTAGTGCAG` came out at 18800 fluorescence intensity (a.u.)

Just so you know, measured binding signal for `GCCAATTTTTTCTCCTCACATCTATTTTACCCTATTATTCCGGAGTCACCTAGTGCAG` came out at 8390 fluorescence intensity (a.u.)

Reference for the values: paper PMC7819943
